Provenance of the data: PubChem BioAssay (NCATS)

Kindly supply the reported Potency values for the records listed here.
- TEST DETAILS: BET inhibitor-based combinations targeting novel dependencies in MECOM-rearranged (r) AML: HNT-34 cell line (AID 2202234); further: potency means the concentration at half of the fitted maximal effect; nearly all actives have a fitted effect of over 35% in size
- CONDITION SUMMARY: HNT-34 AML viability, CellTiter-Glo luminescence, 48 h; series mostly up to 46 µM
Records with an inconclusive call do not appear. The source made the active and inactive calls. The call rests on the fitted dose curve; in most records, active means well fitted inhibition curve with a large enough effect; inconclusive means small, poorly fitted or top-dose-only effect; inactive means no such curve, though single readings can be large or run the other way.

Consider the compound shown here: Cc1c(N)nc([C@H](CC(N)=O)NC[C@@H](N)C(N)=O)nc1C(=O)N[C@H](C(=O)N[C@@H](C)[C@H](O)[C@@H](C)C(=O)N[C@@H](C(=O)NCCc1nc(-c2nc(C(=O)NCCC[S+](C)C)cs2)cs1)[C@@H](C)O)C(O[C@H]1O[C@H](CO)[C@H](O)[C@@H](O)[C@H]1O[C@H]1O[C@H](CO)[C@@H](O)[C@H](OC(N)=O)[C@@H]1O)c1cnc[nH]1 (stereo partly drawn) What is its recorded Potency?
8.11 µM (active)

Consider the compound shown here: CC(C)[C@H]1C(=O)N[C@H](CO)Cc2c[nH]c3cccc(c23)N1C What is its recorded Potency?
0.0512 µM (active)

Consider the compound shown here: COc1ccc(C(=O)c2c(C)n(CCN3CCOCC3)c3ccccc23)cc1 What is its recorded Potency?
2.35 µM (active)

----------
- TEST DETAILS: BET inhibitor-based combinations targeting novel dependencies in MECOM-rearranged (r) AML: AML-194 cell line (AID 2202237; further: nearly all actives have a fitted effect of over 40% in size)
- CONDITION SUMMARY: AML-194 (MECOM-r AML) viability, CellTiter-Glo, 48 h; series mostly up to 46 µM
Results filed as inconclusive are left out. Calls of active or inactive are those of the source. The call rests on the fitted dose curve; in most records, active means well fitted inhibition curve with a large enough effect; inconclusive means small, poorly fitted or top-dose-only effect; inactive means flat fitted curve, though single readings scatter.
Permitted responses: 1 (yes) = active, 0 (no) = inactive

What did this assay record as the result for COC1(CS(=O)c2ccccc2)CCN(CCc2c[nH]c3ccc(F)cc23)CC1 (stereo not drawn) ?
0 (no)

What did this assay record as the result for CCc1c(C(=O)C(N)=O)c2c(OCC(=O)O)cccc2n1Cc1ccccc1 ?
0 (no)

What did this assay record as the result for O=P1(N(CCCl)CCCl)NCCCO1 (stereo not drawn) ?
0 (no)

What did this assay record as the result for C[C@]12CC[C@@H]3[C@@H](CCC4=CC(=O)CC[C@@H]43)[C@@H]1CC[C@@H]2OC(=O)CCc1ccccc1 ?
0 (no)

What did this assay record as the result for CCCC[N+]1(C)[C@H]2CC(OC(=O)[C@H](CO)c3ccccc3)C[C@H]1[C@H]1O[C@H]12 (stereo partly drawn) ?
0 (no)

What did this assay record as the result for COc1cc(C(=O)N2CC[C@@H](O)[C@@H](N)C2)cc2nc(-c3cc4ccccc4n3CC3CC3)n(C)c12 ?
0 (no)

What did this assay record as the result for Cc1[nH]ncc1-c1cc2nc([C@@H]3CC4CCN3CC4)[nH]c(=O)c2s1 ?
1 (yes)

What did this assay record as the result for C[C@@H](C1CC[C@@]2(O)C3=CC(=O)[C@@H]4C[C@@H](O)[C@@H](O)C[C@]4(C)[C@H]3CC[C@]12C)[C@H](O)CCC(C)(C)O (stereo partly drawn) ?
0 (no)

What did this assay record as the result for CCCCCC[C@H]1C(=O)O[C@H](C)[C@H](NC(=O)c2cccc(NC=O)c2O)C(=O)O[C@@H](C)[C@@H]1OC(=O)CC(C)C ?
0 (no)

What did this assay record as the result for C[C@H]1[C@H](O)[C@@H](C)/C=C/C=C/CC/C=C/C=C/C=C/C=C/[C@H](O[C@@H]2O[C@H](C)[C@@H](O)[C@H](N)[C@@H]2O)C[C@@H]2O[C@](O)(C[C@@H](O)[C@H](O)CC[C@@H](O)C[C@@H](O)C[C@@H](O)CC(=O)O[C@H]1C)C[C@H](O)[C@H]2C(=O)O ?
0 (no)

What did this assay record as the result for NC(=O)[C@@H](CC1CC1)[C@@H](CCC(F)(F)F)C(=O)N[C@H]1N=C(c2ccccc2)c2cccc(F)c2NC1=O ?
0 (no)

What did this assay record as the result for COC(=O)[C@@]12OC[C@]34[C@H]([C@@H](O)[C@@H]1O)[C@@]1(C)CC(=O)C(O)=C(C)[C@@H]1C[C@H]3OC(=O)[C@H](OC(=O)/C=C(\C)C(C)C)[C@@H]24 ?
1 (yes)

What did this assay record as the result for COC12C(COC(N)=O)C3=C(C(=O)C(C)=C(N)C3=O)N1CC1C2N1C (stereo not drawn) ?
0 (no)

What did this assay record as the result for COc1cc(C)[nH]c(=O)c1CNC(=O)c1c(C)n([C@H](C)C2CCOCC2)c2ccccc12 ?
0 (no)

What did this assay record as the result for O=c1[nH]c2ccc(Cl)cc2c(N[C@@H]2CN3CCC2CC3)c1-c1nc2ccccc2[nH]1 ?
1 (yes)

What did this assay record as the result for CC(C)(NC(=O)O[C@@H]1CN2CCC1CC2)c1csc(-c2ccc(F)cc2)n1 ?
0 (no)

What did this assay record as the result for C[C@H]1CCC/C=C/C2C[C@H](O)C[C@H]2[C@H](O)/C=C/C(=O)O1 (stereo partly drawn) ?
1 (yes)

What did this assay record as the result for CC(C)c1cccc(C(C)C)c1O ?
0 (no)

What did this assay record as the result for COc1cc([C@@H]2c3cc4c(cc3[C@@H](O)C3COC(=O)C32)OCO4)cc(OC)c1O (stereo partly drawn) ?
1 (yes)

What did this assay record as the result for N[C@@H]1C[C@H]1c1ccccc1 ?
0 (no)

What did this assay record as the result for Cn1c(CCCCCCC(=O)NO)nc2cc(N(CCCl)CCCl)ccc21 ?
1 (yes)

What did this assay record as the result for COc1cccc2c1C(=O)c1c(O)c3c(c(O)c1C2=O)C[C@@](O)(C(=O)CO)CC3OC1CC(N2CCOC(OC)C2)C(O)C(C)O1 (stereo partly drawn) ?
1 (yes)

What did this assay record as the result for O=C(O)CNC(=O)c1c(O)c2ccccc2n(Cc2ccccc2)c1=O ?
0 (no)
